target.system: T1, CD3 on primary human pan T cells (human, UniProt P07766 23-207)
T1 construct: on cells it stands in the TCR/CD3 complex; also called Pan T-cells (CD3-positive); endogenous CD3
T1 sequence (P07766 23-207 limits assumed): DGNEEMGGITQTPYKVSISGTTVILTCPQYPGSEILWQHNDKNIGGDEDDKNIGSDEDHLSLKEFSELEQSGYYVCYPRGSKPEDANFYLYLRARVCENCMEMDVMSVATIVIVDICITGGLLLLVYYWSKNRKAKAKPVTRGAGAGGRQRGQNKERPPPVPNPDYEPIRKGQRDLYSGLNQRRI
experiment.description: flow cytometry, pan T-cells
Documented % Binding retained on T-cells, RT across a set of binders
Write down the numeric answer in fraction and omit the unit.

Would you please look over these solved cases?
# binder, % Binding retained on T-cells, RT, fraction
measured = [
    ("CD3B2078 (scFv) scFv: QVQLVQSGAEVKKPGSSVKVSCKASGYTFTRSTMHWVRQAPGQGLEWIGYINPSSAYTNYAQKFQGRVTLTADKSTSTAYMELSSLRSEDTAVYYCASPQVHYDYNGFPYWGQGTLVTVSSGGSEGKSSGSGSESKSTGGSEIVLTQSPATLSASPGERVTLSCSASSSVSYMNWYQQKPGTSPRRLIYDSSKLASGVPARFSGSGSGRDYTLTISSLEPEDFAVYYCQQWSRNPPTFGGGTKVEIK", 1),
    ("CD3B2033 (scFv) scFv: QVQLVQSGAEVKKPGSSVKVSCKASGYTFTRSTMHWVKQAPGQGLEWMGYINPSSAYTNYNQKFQGRVTLTADKSTSTAYMELSSLRSEDTAVYYCASPQVHYDYNGFPYWGQGTLVTVSSGGSEGKSSGSGSESKSTGGSEIVLTQSPATLSASPGERVTLSCSASSSVSYMNWYQQKPGTAPRRLIYDSSKLASGVPARFSGSGSGRDYTLTISSLEPEDFAVYYCQQWSRNPPTFGGGTKVEIK", 1),
]

Consider now this further binder.
Q: Given CD3B2045 (scFv) scFv: QVQLVQSGAEVKKPGSSVKVSCKASGYTFTRSTMHWVRQAPGQGLEWIGYINPSSAYTNYNQKFQGRVTLTADKSTSTAYMELSSLRSEDTAVYYCASPQVHYDYNGFPYWGQGTLVTVSSGGSEGKSSGSGSESKSTGGSEIVLTQSPATLSASPGERVTLSCSASSSVSYMNWYQQKPGQAPRRWIYDSSKLASGVPARFSGSGSGRDYTLTISSLEPEDFAVYYCQQWSRNPPTFGGGTKVEIK , state its recorded % Binding retained on T-cells, RT.
Ans: 1
